Biological target: T1, recombinant human TIGIT (Sino Biological) (human, UniProt Q495A1 22-138)
T1 construct: Bought protein; NP_776160.2; also called human TIGIT antigen; hTIGIT
T1 sequence: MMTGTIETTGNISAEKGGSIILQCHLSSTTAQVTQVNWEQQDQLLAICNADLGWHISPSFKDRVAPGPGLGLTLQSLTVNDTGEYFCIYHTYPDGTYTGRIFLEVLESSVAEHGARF
Test: SPR single cycle kinetics; KD divided by KD of the VH0/Vκ0 chimeric antibody;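 further: biacore T200 SPR at 25 °C, IgG captured on anti-human chip, TIGIT analyte in four rising concentrations, 210 s association each, 900 s dissociation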

binder	Relative KD
7A6 VH2/Vκ3 humanized antibody (human IgG1, kappa) (antibody, V domains shown, Tested as IgG in supernatant of transiently transfected HEK293 EBNA cells) VH: DVQLQESGPGLVKPSQTLSLTCTVTGYSITSDYAWNWIRQPPGKGLEWMGYISYSGSARYNPSLKSRITISRDTSKNQFSLKLSSVTAEDTATYYCARKGYPAYFAYWGQGTLVTVSS VL: DIQMTQSPSSLSASVGDRVSITCKASQDVSTAVAWYQQKPGQAPRLLIYSASYRYTGVPDRFSGSGSGTDFTLTISSLQAEDVAVYYCQHHYSTPYTFGQGTKLEIKR	1.38
7A6 VH4/Vκ1 humanized antibody (human IgG1, kappa) (antibody, V domains shown, Tested as IgG in supernatant of transiently transfected HEK293 EBNA cells) VH: QVQLQESGPGLVKPSQTLSLTCTVTGYSITSDYAWNWIRQPPGKGLEWMGYISYSGSARYNPSLKSRVTISRDTSKNQFSLKLSSVTAADTAVYYCARKGYPAYFAYWGQGTLVTVSS VL: DIVMTQSHSFLSASVGDRVSITCKASQDVSTAVAWYQQKPGQAPELLIYSASYRYTGVPDRFTGSGSGTDFTLTISSLQAEDVAVYYCQHHYSTPYTFGQGTKLEMKR	0.94
